Source: patent US4010264A

Assay Comment: binding to serum protein
Assay type: in vitro ADME
Stated Conditions: serum protein; read-out: extent bound to serum protein
Reported Property: fraction bound to serum protein

Req: Dear colleague, I am looking for the recorded fraction bound to serum protein of the following molecule: CC(=O)OCC1=C(C(=O)O)N2C(=O)C(NC(=O)Cc3cc(-c4c(Cl)cccc4Cl)no3)C2SC1 (stereo not shown)
Resp: ~0.5

====

MIC, Staphylococcus aureus A355 (penicillinase-producing), per-entry values.
Give your result in µg/mL as a bare value.

Please review the entries below; each comes with its answer.
* Cc1onc(-c2ccccc2Cl)c1C(=O)N[C@@H]1C(=O)N2[C@@H]1SC(C)(C)[C@@H]2C(=O)O [Cloxazilline, Cloxacillin, reference compound] | 0.5
* CC1(C)SC2C(NC(=O)Cc3cc(-c4ccc([N+](=O)[O-])cc4)no3)C(=O)N2C1C(=O)O (stereo not shown) [XIX] | 1
* CC(=O)OCC1=C(C(=O)[O-])N2C(=O)C(NC(=O)Cc3onc(C)c3Cl)[C@H]2SC1.[Na+] (stereo partly shown) [XXXV] | 0.5
* Cc1cc(C)c(-c2cc(CC(=O)NC3C(=O)N4C3SC(C)(C)C4C(=O)O)on2)c(C)c1 (stereo not shown) [VI] | 3
* CC1=C(C(=O)O)N2C(=O)[C@@H](NC(=O)[C@H](N)c3ccccc3)[C@H]2SC1 [Cephalexine, Cephalexin, reference compound] | 12.5
* CC1(C)SC2C(NC(=O)Cc3onc(-c4c(Cl)cccc4Cl)c3C#N)C(=O)N2C1C(=O)O (stereo not shown) [Example XV] | 12.5

Here is the next item to consider.
Req: Dear colleague, I am looking for the recorded MIC of the following molecule: CC(=O)OCC1=C(C(=O)O)N2C(=O)C(NC(=O)Cc3onc(-c4c(C)cc(C)cc4C)c3C)C2SC1 (stereo not shown) [XII]
Resp: 0.25

====

Tested on: Klebsiella pneumoniae A809
Assay Comment: MIC, agar serial dilution test
Assay type: cell-based
Stated Conditions: Klebsiella pneumoniae A809; 24 hours at 37° C; read-out: MIC
Entries and their MIC values follow.
Give your result in µg/mL as a bare value.

- CC(=O)OCC1=C(C(=O)O)N2C(=O)C(NC(=O)Cc3cc(-c4c(C)cc(C)cc4C)no3)C2SC1 (stereo not shown): 50

Here is the next item to consider.
Req: // map CC(=O)OCC1=C(C(=O)O)N2C(=O)C(NC(=O)Cc3cc(C)no3)C2SC1 (stereo not shown) to recorded MIC (system: Klebsiella pneumoniae A809)
Resp: 3

====

Entries and their MIC values follow.
Test system: Klebsiella pneumoniae A809
Assay Comment: MIC, agar serial dilution test
Type: cell-based
Stated Conditions: Klebsiella pneumoniae A809; 24 hours at 37° C; read-out: MIC

Please review the entries below; each comes with its answer.
* CC1(C)S[C@@H]2C(NC(=O)Cc3onc(-c4c(Cl)cccc4Cl)c3C(=O)O)C(=O)N2[C@H]1C(=O)O (stereo partly shown) | > 100 µg/mL
* CC1=C(C(=O)O)N2C(=O)C(NC(=O)Cc3cc(-c4c(Cl)cccc4Cl)no3)C2SC1 (stereo not shown) | > 100 µg/mL
* CC1(C)SC2C(NC(=O)Cc3cc(-c4c(Cl)cccc4Cl)no3)C(=O)N2C1C(=O)O (stereo not shown) | 100 µg/mL

Here is the next item to consider.
Req: Dear colleague, I am looking for the recorded MIC of the following compound: Cc1c(-c2c(Cl)cccc2Cl)noc1CC(=O)NC1C(=O)N2C1SC(C)(C)C2C(=O)O (stereo not shown)
Resp: > 100 µg/mL

====

System: Staphylococcus aureus A321
Assay Comment: MIC, agar serial dilution test
Format: cell-based
Stated Conditions: Staphylococcus aureus A321; 24 hours at 37° C; read-out: MIC
Reported Property: log10 of MIC (log10 of the value in µg/mL)
Hello, just confirming the data are log10 of MIC with units of µg/mL.

Req: Dear colleague, I am looking for the recorded log10 of MIC of the following compound: CC1(C)SC2C(NC(=O)Cc3cc(C45CC6CC(CC(C6)C4)C5)no3)C(=O)N2C1C(=O)O (centres unmarked) [Example XVI]
Resp: -1.52

====

MIC, Staphylococcus aureus L160a (penicillinase-producing), per-entry values.
Give your result in µg/mL as a bare value.

Req: Dear colleague, I am looking for the recorded MIC of the following compound: Cc1c(-c2c(Cl)cccc2Cl)noc1CC(=O)NC1C(=O)N2C1SC(C)(C)C2C(=O)O (stereo not shown)
Resp: 0.5

Req: Dear colleague, I am looking for the recorded MIC of the following compound: CC1(C)SC2C(NC(=O)C(NC(=O)OCc3ccc([N+](=O)[O-])cc3)c3cc(-c4c(Cl)cccc4Cl)no3)C(=O)N2C1C(=O)O (stereo not shown)
Resp: 6

Req: Dear colleague, I am looking for the recorded MIC of the following compound: Cc1onc(-c2c(Cl)cccc2Cl)c1C(=O)N[C@@H]1C(=O)N2[C@@H]1SC(C)(C)[C@@H]2C(=O)O [Dicloxacillin, reference compound]
Resp: 0.25

Req: Dear colleague, I am looking for the recorded MIC of the following compound: CC1(C)S[C@@H]2C(NC(=O)Cc3onc(-c4c(Cl)cccc4Cl)c3C(=O)O)C(=O)N2[C@H]1C(=O)O (stereo partly shown)
Resp: 3

====

Tested on: Staphylococcus aureus A355 (penicillinase-producing)
Entries and their MIC values follow.
Give your result in mg/L as a bare value.

Please review the entries below; each comes with its answer.
- CC(=O)OCC1=C(C(=O)O)N2C(=O)C(NC(=O)Cc3cc(-c4c(Cl)cccc4Cl)no3)C2SC1 (stereo not shown) [Example III]: 0.12
- CC1=C(C(=O)O)N2C(=O)C(NC(=O)Cc3cc(-c4c(Cl)cccc4Cl)no3)C2SC1 (stereo not shown) [Example IV]: 3

Here is the next item to consider.
Req: Dear colleague, I am looking for the recorded MIC of the following molecule: CC(=O)OCC1=C(C(=O)O)N2C(=O)C(NC(=O)Cc3cc(C)no3)C2SC1 (stereo not shown) [Example XXII]
Resp: 1

====

Tested on: Diplococcus pneumoniae L 54
Assay Comment: MIC, agar serial dilution test
Format: cell-based
Stated Conditions: Streptococcus pneumoniae, L54; Diplococcus pneumoniae L 54; 24 hours at 37° C; read-out: MIC
Reported Property: MIC
Output should be the measured figure followed by the unit it is expressed in.

Please review the entries below; each comes with its answer.
* CC(=O)OCC1=C(C(=O)O)N2C(=O)C(NC(=O)Cc3cc(C)no3)C2SC1 (centres unmarked) [Example XXII] | 0.5 µg/mL
* Cc1c(-c2c(Cl)cccc2Cl)noc1CC(=O)NC1C(=O)N2C1SC(C)(C)C2C(=O)O (centres unmarked) [Example X] | 0.02 µg/mL

Req: Dear colleague, I am looking for the recorded MIC of the following compound: Cc1onc(-c2ccccc2Cl)c1C(=O)N[C@@H]1C(=O)N2[C@@H]1SC(C)(C)[C@@H]2C(=O)O [Cloxazilline, Cloxacillin, reference compound]
Resp: 1.5 µg/mL

Req: Dear colleague, I am looking for the recorded MIC of the following compound: CC1(C)SC2C(NC(=O)Cc3cc(-c4ccc([N+](=O)[O-])cc4)no3)C(=O)N2C1C(=O)O (centres unmarked) [XIX]
Resp: 0.03 µg/mL

Req: Dear colleague, I am looking for the recorded MIC of the following compound: CC(=O)OCC1=C(C(=O)O)N2C(=O)C(NC(=O)Cc3cc(-c4c(Cl)cccc4Cl)no3)C2SC1 (centres unmarked) [Example III]
Resp: 0.007 µg/mL

====

Tested on: Diplococcus pneumoniae L 54
Assay Comment: MIC, agar serial dilution test
Assay type: cell-based
Stated Conditions: Streptococcus pneumoniae, L54; Diplococcus pneumoniae L 54; 24 hours at 37° C; read-out: MIC
Entries and their MIC values follow.
Give your result in µg/mL as a bare value.

- CC1(C)SC2C(NC(=O)Cc3cc(-c4c(Cl)cccc4Cl)no3)C(=O)N2C1C(=O)O (stereo not shown): 0.25
- Cc1cc(C)c(-c2cc(C(C)C(=O)NC3C(=O)N4C3SC(C)(C)C4C(=O)O)on2)c(C)c1 (stereo not shown): 0.12

Req: Dear colleague, I am looking for the recorded MIC of the following molecule: Cc1cc(C)c(-c2cc(C(Cl)C(=O)NC3C(=O)N4C3SC(C)(C)C4C(=O)O)on2)c(C)c1 (stereo not shown)
Resp: 0.12

Req: Dear colleague, I am looking for the recorded MIC of the following molecule: Cc1onc(-c2c(Cl)cccc2Cl)c1C(=O)N[C@@H]1C(=O)N2[C@@H]1SC(C)(C)[C@@H]2C(=O)O [Dicloxacillin, reference compound]
Resp: 0.5

====

System: Staphylococcus aureus A 321
Assay Comment: in vivo infection test in mice
Stated Conditions: A321, in Mus musculus, po
Reported Property: ED50

Please review the entries below; each comes with its answer.
- Cc1cc(C)c(-c2cc(C(C)C(=O)NC3C(=O)N4C3SC(C)(C)C4C(=O)O)on2)c(C)c1 (stereo not drawn) [Example XI]: > 100 mg/kg
- CC1(C)S[C@@H]2C(NC(=O)Cc3onc(-c4c(Cl)cccc4Cl)c3C(=O)O)C(=O)N2[C@H]1C(=O)O (stereo partly drawn) [Example V]: > 215 mg/kg

Req: Dear colleague, I am looking for the recorded ED50 of the following molecule: Cc1cc(C)c(-c2cc(C(Cl)C(=O)NC3C(=O)N4C3SC(C)(C)C4C(=O)O)on2)c(C)c1 (stereo not drawn) [Example IX]
Resp: > 100 mg/kg
